- Species on record: Rattus norvegicus
- assay_notes: DrugMatrix - Regimen: Daily Repeat
- Type: toxicity, organism-based, Sprague-Dawley
- Design: regimen Daily Repeat, gender Male, age 6-8 weeks
- test_parameters: in vivo, po, 0 mg/kg, 72 h, tissue Blood, route oral GAVAGE, dose level Control, time 3 day, […]
measured_quantity: MEAN CORPUSCULAR HEMOGLOBIN
Note to self: number, then unit, no commentary.

>  <compound>
c1ccc2c(c1)Nc1ccccc1S2

>  <MEAN CORPUSCULAR HEMOGLOBIN>
24.97 pg

$$$$
>  <compound>
Cc1cccc(C)c1NC(=O)C(C)N (stereo not given) [TOCAINIDE]

>  <MEAN CORPUSCULAR HEMOGLOBIN>
23.98 pg

$$$$
>  <compound>
COc1ccccc1OCCNCC(O)COc1cccc2[nH]c3ccccc3c12 (stereo not given)

>  <MEAN CORPUSCULAR HEMOGLOBIN>
24.48 pg

$$$$
>  <compound>
O=C(O)COC(=O)Cc1ccccc1Nc1c(Cl)cccc1Cl

>  <MEAN CORPUSCULAR HEMOGLOBIN>
24.48 pg

$$$$

// next entry
q: What value of MEAN CORPUSCULAR HEMOGLOBIN has been recorded for this entry: `CO[C@H]1O[C@@H]2O[C@@]3(C)CC[C@H]4[C@H](C)CC[C@@H]([C@H]1C)[C@@]24OO3`
a: 23.58 pg

* * *

- Species on record: Rattus norvegicus
- assay_notes: DrugMatrix - Regimen: Daily Repeat
- Type: toxicity, organism-based, Sprague-Dawley
- Design: regimen Daily Repeat, gender Male, age 6-8 weeks
- test_parameters: in vivo, po, 1500 mg/kg, 120 h, tissue Plasma, route oral GAVAGE, dose level High, time 5 day, vehicle .5 % CMC
Entries annotated with measured TOTAL BILIRUBIN

Worked set:
>  <compound>
O=C(O)CCc1nc(-c2ccccc2)c(-c2ccccc2)o1 [OXAPROZIN]

>  <TOTAL BILIRUBIN>
0.27 mg/dL

$$$$
>  <compound>
Cc1ccc(S(=O)(=O)NC(=O)NN2CCCCCC2)cc1 [TOLAZAMIDE]

>  <TOTAL BILIRUBIN>
0.2 mg/dL

$$$$
>  <compound>
CC[C@H]1OC(=O)[C@H](C)[C@@H](O[C@H]2C[C@@](C)(OC)[C@@H](O)[C@H](C)O2)[C@H](C)[C@@H](O[C@@H]2O[C@H](C)C[C@H](N(C)C)[C@H]2O)[C@](C)(O)C[C@@H](C)C(=O)[C@H](C)[C@@H](O)[C@]1(C)O [ERYTHROMYCIN]

>  <TOTAL BILIRUBIN>
0.1 mg/dL

$$$$
>  <compound>
COc1cc(/C=C/C(=O)O)ccc1O [FERULATE]

>  <TOTAL BILIRUBIN>
0.2 mg/dL

$$$$

q: What value of TOTAL BILIRUBIN has been recorded for this entry: COc1ccc(Cl)cc1C(=O)NCCc1ccc(S(=O)(=O)NC(=O)NC2CCCCC2)cc1 [GLYBURIDE]
a: 0.33 mg/dL

* * *

Entries annotated with measured CREATININE
- Species on record: Rattus norvegicus
- assay_notes: DrugMatrix - Regimen: Daily Repeat
- Assay type: toxicity, organism-based, Sprague-Dawley
- Parameters: regimen Daily Repeat, gender Male, age 6-8 weeks
- test_parameters: in vivo, po, 0 mg/kg, 72 h, tissue Plasma, route oral GAVAGE, dose level Control, time 3 day, vehicle 100 % SALINE
# value in mg/dL; strip the unit string

Worked set:
>  <compound>
CC(CN1c2ccccc2Sc2ccccc21)N(C)C (stereo not given) [PROMETHAZINE]

>  <measured_quantity>
CREATININE

>  <result_units>
mg/dL

>  <recorded_result>
0.21

$$$$
>  <compound>
CCN(CC)N=O [N-NITROSODIETHYLAMINE]

>  <measured_quantity>
CREATININE

>  <result_units>
mg/dL

>  <recorded_result>
0.28

$$$$
>  <compound>
CCO [ALCOHOL]

>  <measured_quantity>
CREATININE

>  <result_units>
mg/dL

>  <recorded_result>
0.19

$$$$
>  <compound>
Cc1ccnc2c1NC(=O)c1cccnc1N2C1CC1 [NEVIRAPINE]

>  <measured_quantity>
CREATININE

>  <result_units>
mg/dL

>  <recorded_result>
0.2

$$$$

// next entry
q: What value of CREATININE has been recorded for this entry: O=[As][O-].[Na+] [SODIUM ARSENITE]
a: 0.19

* * *

- Species: Rattus norvegicus
- assay_notes: DrugMatrix - Regimen: Daily Repeat
- Assay type: toxicity, organism-based, Sprague-Dawley
- Design: regimen Daily Repeat, gender Male, age 6-8 weeks
- test_parameters: in vivo, po, 0 mg/kg, 120 h, tissue Blood, route oral GAVAGE, dose level Control, time 5 day, […]
measured_quantity: MEAN CORPUSCULAR HEMOGLOBIN (pg)
# value in pg; strip the unit string

Worked set:
>  <compound>
CCC(C)(C)C(=O)O[C@H]1C[C@@H](C)C=C2C=C[C@H](C)[C@H](CC[C@@H]3C[C@@H](O)CC(=O)O3)[C@H]21 [SIMVASTATIN]

>  <MEAN CORPUSCULAR HEMOGLOBIN [pg]>
24.32

$$$$
>  <compound>
Cc1cccc(C)c1NC(=O)C(C)N (centres undefined) [TOCAINIDE]

>  <MEAN CORPUSCULAR HEMOGLOBIN [pg]>
25.7

$$$$
>  <compound>
c1ccc2c(c1)Nc1ccccc1S2 [PHENOTHIAZINE]

>  <MEAN CORPUSCULAR HEMOGLOBIN [pg]>
24.5

$$$$

q: What value of MEAN CORPUSCULAR HEMOGLOBIN has been recorded for this entry: CC(C)(c1ccc(O)cc1)c1ccc(O)cc1 [BISPHENOL A]
a: 25.28

* * *

- Species: Rattus norvegicus
- assay_notes: DrugMatrix - Regimen: Daily Repeat
- Type: toxicity, organism-based, Sprague-Dawley
- Set-up: regimen Daily Repeat, gender Male, age 6-8 weeks
- test_parameters: in vivo, po, 0 mg/kg, 72 h, tissue Plasma, route oral GAVAGE, dose level Control, time 3 day, vehicle 100 % SALINE
Entries annotated with measured CARBON DIOXIDE
Note to self: number, then unit, no commentary.

Worked set:
>  <compound>
CCN(CC)N=O [N-NITROSODIETHYLAMINE]

>  <recorded_result>
38 mmol/L

$$$$
>  <compound>
O=[As][O-].[Na+] [SODIUM ARSENITE]

>  <recorded_result>
32.33 mmol/L

$$$$
>  <compound>
CC(CN1c2ccccc2Sc2ccccc21)N(C)C (stereo not given) [PROMETHAZINE]

>  <recorded_result>
26.67 mmol/L

$$$$
>  <compound>
CCO [ALCOHOL]

>  <recorded_result>
32.33 mmol/L

$$$$

// next entry
q: What value of CARBON DIOXIDE has been recorded for this entry: Cc1ccnc2c1NC(=O)c1cccnc1N2C1CC1 [NEVIRAPINE]
a: 31.33 mmol/L

* * *

Entries annotated with measured PHOSPHORUS
- Species: Rattus norvegicus
- assay_notes: DrugMatrix - Regimen: Daily Repeat
- Format: toxicity, organism-based, Sprague-Dawley
- Design: regimen Daily Repeat, gender Male, age 6-8 weeks
- test_parameters: in vivo, po, 0 mg/kg, 120 h, tissue Plasma, route oral GAVAGE, dose level Control, time 5 day, vehicle 100 % WATER
# value in mg/dL; strip the unit string

Worked set:
>  <molecule>
NN [HYDRAZINE]

>  <PHOSPHORUS [mg/dL]>
11.25

$$$$
>  <molecule>
CCN(CC)C(=S)SSC(=S)N(CC)CC

>  <PHOSPHORUS [mg/dL]>
11.65

$$$$
>  <molecule>
Cc1cn([C@H]2C=C[C@@H](CO)O2)c(=O)[nH]c1=O

>  <PHOSPHORUS [mg/dL]>
10.73

$$$$
>  <molecule>
C[N+](C)(C)CCOC(N)=O.[Cl-]

>  <PHOSPHORUS [mg/dL]>
10.73

$$$$

q: What value of PHOSPHORUS has been recorded for this entry: `C1CCN2C[C@@H]3C[C@@H](CN4CCCC[C@@H]34)[C@H]2C1`
a: 10.38

q: What value of PHOSPHORUS has been recorded for this entry: `CC(Cl)(Cl)Cl`
a: 10.38

q: What value of PHOSPHORUS has been recorded for this entry: `CCC1(c2ccccc2)C(=O)NC(=O)NC1=O`
a: 10.13

q: What value of PHOSPHORUS has been recorded for this entry: `CN1C(=O)OC(C)(C)C1=O`
a: 11.28

q: What value of PHOSPHORUS has been recorded for this entry: `Cc1cc(C(C)(C)C)c(O)c(C)c1CC1=NCCN1`
a: 11.35

* * *

- Species on record: Rattus norvegicus
- assay_notes: DrugMatrix - Regimen: Daily Repeat
- Type: toxicity, organism-based, Sprague-Dawley
- Set-up: regimen Daily Repeat, gender Male, age 6-8 weeks
- test_parameters: in vivo, po, 0 mg/kg, 120 h, tissue Plasma, route oral GAVAGE, dose level Control, time 5 day, vehicle 100 % WATER
Entries annotated with measured BLOOD UREA NITROGEN
# value in mg/dL; strip the unit string

Worked set:
>  <molecule>
Cc1cc(C(C)(C)C)c(O)c(C)c1CC1=NCCN1

>  <BLOOD UREA NITROGEN, mg/dL>
15.33

$$$$
>  <molecule>
C[N+](C)(C)CCOC(N)=O.[Cl-]

>  <BLOOD UREA NITROGEN, mg/dL>
15.83

$$$$
>  <molecule>
CC(Cl)(Cl)Cl

>  <BLOOD UREA NITROGEN, mg/dL>
16.17

$$$$
>  <molecule>
CCC1(c2ccccc2)C(=O)NC(=O)NC1=O

>  <BLOOD UREA NITROGEN, mg/dL>
15

$$$$
>  <molecule>
Cc1cn([C@H]2C=C[C@@H](CO)O2)c(=O)[nH]c1=O

>  <BLOOD UREA NITROGEN, mg/dL>
15.83

$$$$

// next entry
q: What value of BLOOD UREA NITROGEN has been recorded for this entry: NN [HYDRAZINE]
a: 17.67
